Field: protein stability index. Provide a value for each of the sequences that follow.
Experiment: protein stability index of a GFP-peptide fusion (yeast GPS) (PSI 1-4); higher = more stable; sorted into four equal gates, so the index is relative within each strain
Conditions: doa10∆
API doc: respond with a numeric literal and nothing else, no unit.

Quick one: protein stability index for LVADGVFYAELNEFFTR [RPS3] ?
3.2

Entry QAPKQRRRTYRAHGRIN [RPL17A] : reported protein stability index = ?
2.06

If you can, please state the reported protein stability index value of SKTVVTLSEPVQGELKP [FAS1] .
2.56

I'd like to know its protein stability index. The sequence in question is GGDWERRNRYKTYYGIH [RPN7]
1.24

====

Assay: protein stability index of a GFP-peptide fusion (yeast GPS) (PSI 1-4); higher = more stable; sorted into four equal gates, so the index is relative within each strain
Details: ubr1∆
Please go through the items and note down their protein stability index.
Please state the value as a number alone, without comment.

I would be grateful if you could share the reported protein stability index for SKLIPEVINKEIENATK [RPS1A] .
3.16

# lookup: protein stability index of TSELGNDDFSEVFEFKT [BRR2]
2.7

What value of protein stability index has been reported for the following sequence? NDIKLFVDDTNVYRVTV [PRP8]
2.57

Reported protein stability index, sequence RTIGIAVDHRRQNRNQE [RPL13A] : ____
2.86

Which measured protein stability index value corresponds to LPVMESLDSCTAAFTAM [YJR042W/NUP85] ?
2.37

# lookup: protein stability index of DKTLRLWDVATGETYQR [ASC1]
3.42

For the sequence ATADTTHLHEALDIVCS [NUT1] , what protein stability index is on record?
2.69

====

Assay: protein stability index of a GFP-peptide fusion (yeast GPS) (PSI 1-4); higher = more stable; sorted into four equal gates, so the index is relative within each strain
Details: doa10∆
endpoint-label: protein stability index

Recorded protein stability index for TKIDMPIKNRKNDTHYL [BRN1] , please?
3.04

I would be grateful if you could share the reported protein stability index for KEKLTVQDCRYSLASVT [POP1] .
2.69

I am curious: what protein stability index value has been reported for LWSIHPSRQFDHYESNQ [SRB8] ?
1.75

# query: protein stability index of entry STVSANHSNNDIPTIAD [BRN1]
3.22

Please give the measured protein stability index for this sequence: YVMERPKNVPTSKWLNS [YDL116W/NUP84]
2.61

Data request, read-out protein stability index, for QGEVGAVFIVPKILIRE [SWP82]
2.03

Which protein stability index is listed for TTSLNPIQSKVFHAAFE [BRR2] ?
2.65

Report protein stability index for AAQIFGSYNAFEPASRL [COR1] please.
2.33

Value lookup for protein stability index; key = RKSYKNQIADLSGKFST [ROX3]
2.76

Param item = TANATAELNLPTVDEQR [SNF11] ; retrieve measured protein stability index.
3.04

// returns reported protein stability index for input DQHVINILWAIYNSASK [YCS4]
1.69

What does the record list as protein stability index for TATNSKGEQIAIFPYQD [ECM29] ?
2.44

protein stability index for MIFETIVDGKLKTEKIF [FAS1] ?
1.8

Consider the sequence shown here: IITSGRDTREVLEERER [ARP9] What is its recorded protein stability index?
3.41

Need protein stability index, item KTRGPFHFRAPSRIFYK [RPL16A]
2.99

Entry EKTINDLQRTQTLSEKE [YIL149C/MLP2] has what protein stability index?
2.97

Field request: protein stability index | item: VARIYASFNDTFVHVTD [RPS14A]
1.96

Please look up its protein stability index: SRTFDKYSKLVDNVTLE [SRP72]
3.37

Recorded protein stability index for IDRNLKCQTCQEGMNEC [RPO21] , please?
2.48

protein stability index lookup needed for LLVDQKQLNSLRRSGQI [SMD1] , thanks.
2.57

May I ask what protein stability index has been recorded for RFISDLLWLVLIHPENF [SWI1] ?
1.82

Requested field: protein stability index. Item: LQQKQRDLILKKGEYAR [SMC3]
2.3

Which protein stability index value is on record for FLHESSFDSIDHSWFLL [CSI1] ?
2.67
